Provide the reported abundance fitness of each item.
B1: Steroid hormone receptor ERR2, residues 100 to 176; numbered along this chain, O95718 (parent)
chain: KRLCLVCGDIASGYHYGVASCEACKAFFKRTIQGNIEYSCPATNECEITKRRRKSCQACRFMKCLKVGMLKEGVRLD

Variants of: B1
protocol: abundance fitness (aPCA) (normalised: wild type 0, dead -1); higher = more abundant; growth selection in yeast, the domain comes from the species named
reportedConditions: Homo sapiens
Enter the number alone.

Ask: Fill in the blank: the reported abundance fitness of R51T is ____.
Reply: -0.04

Ask: Look at this variant and give its reported abundance fitness. S55H
Reply: 0.351

Ask: Could you share which abundance fitness value was measured for V18M ?
Reply: 0.218

Ask: Reported abundance fitness, variant K54L : ____
Reply: 0.005

Ask: State the recorded abundance fitness for this entry: K54E
Reply: 0.129

Ask: Item Y38M has what recorded abundance fitness?
Reply: -0.548

Ask: Dear colleague, I am looking for the recorded abundance fitness of the following variant: G8S
Reply: -0.117

Ask: Please give the measured abundance fitness for this variant: C7F
Reply: -0.362

Ask: Can you share its abundance fitness? I mean this variant: G13A
Reply: -0.751

Ask: Which measured abundance fitness value corresponds to T43V ?
Reply: -0.012

Ask: Need abundance fitness, item G34Y
Reply: 0.075
